Each entry below lists one item and its recorded mass density value.
# condition-description: 293.15 K; 101.33 kPa; Liquid; Vibrating tube method

{"molecule": "CCCCOC(C)=O [butyl ethanoate]", "mass density [kg/m3]": 880.61}
{"molecule": "CC(=O)CO [acetol]", "mass density [kg/m3]": 1080.13}
{"molecule": "CCCOC(C)=O [propyl ethanoate]", "mass density [kg/m3]": 887.8}
{"molecule": "CCOC(C)=O [ethyl acetate]", "mass density [kg/m3]": 900.48}

---

# condition-description: 308.15 K; 101.33 kPa; Liquid; Vibrating tube method
This section presents molecules with their documented mass density values.

{"molecule": "CC(=O)CO", "mass density / kg/m3": 1064.31}
{"molecule": "CCOC(C)=O [ethyl acetate]", "mass density / kg/m3": 881.98}
{"molecule": "CCCCOC(C)=O [butyl ethanoate]", "mass density / kg/m3": 865.08}
{"molecule": "CCCOC(C)=O [propyl ethanoate]", "mass density / kg/m3": 870.9}

---

# condition-description: 313.15 K; 101.33 kPa; Liquid; Vibrating tube method
The compounds listed here are annotated with their mass density.
reported-metric: mass density (kg/m3)

{"compound": "CCCOC(C)=O [propyl ethanoate]", "unit-tag": "kg/m3", "readout-value": 865.21}
{"compound": "CC(=O)CO", "unit-tag": "kg/m3", "readout-value": 1058.71}
{"compound": "CCCCOC(C)=O [butyl ethanoate]", "unit-tag": "kg/m3", "readout-value": 859.86}
{"compound": "CCOC(C)=O [ethyl acetate]", "unit-tag": "kg/m3", "readout-value": 875.73}

---

# condition-description: 303.15 K; 101.33 kPa; Liquid; Vibrating tube method

{"molecule": "CCCCOC(C)=O [butyl ethanoate]", "mass density, kg/m3": 870.27}
{"molecule": "CC(=O)CO [acetol]", "mass density, kg/m3": 1069.67}
{"molecule": "CCOC(C)=O [ethyl acetate]", "mass density, kg/m3": 888.19}
{"molecule": "CCCOC(C)=O [propyl ethanoate]", "mass density, kg/m3": 876.56}

---

Let's look at some compounds and their measured mass density.
# condition-description: 298.15 K; 101.33 kPa; Liquid; Vibrating tube method
reported-metric: mass density (kg/m3)

{"compound": "CC(=O)CO [acetol]", "unit-tag": "kg/m3", "readout-value": 1074.92}
{"compound": "CCCCOC(C)=O [butyl ethanoate]", "unit-tag": "kg/m3", "readout-value": 875.45}
{"compound": "CCCOC(C)=O [propyl ethanoate]", "unit-tag": "kg/m3", "readout-value": 882.19}
{"compound": "CCOC(C)=O [ethyl acetate]", "unit-tag": "kg/m3", "readout-value": 894.36}

Just for reference, the NIST ThermoML archive (doi:10.1016/j.fluid.2018.01.026) is where these values come from.
